- Test system: Citrobacter diversus
- Test Name: Expected efficacy of antibiotic agents
- Type: cell-based
- Experimental Setup: Gram: neg

Smiles Str	efficacy against Citrobacter diversus
O=C(O)c1cn(C2CC2)c2cc(N3CCNCC3)c(F)cc2c1=O	yes
CC[C@H]1OC(=O)[C@H](C)[C@@H](O[C@H]2C[C@@](C)(OC)[C@@H](O)[C@H](C)O2)[C@H](C)[C@@H](O[C@@H]2O[C@H](C)C[C@H](N(C)C)[C@H]2O)[C@](C)(O)C[C@@H](C)CN(C)[C@H](C)[C@@H](O)[C@]1(C)O	no
CN[C@H](CC(C)C)C(=O)N[C@H]1C(=O)N[C@@H](CC(N)=O)C(=O)N[C@H]2C(=O)N[C@H]3C(=O)N[C@H](C(=O)N[C@H](C(=O)O)c4cc(O)cc(O)c4-c4cc3ccc4O)[C@H](O)c3ccc(c(Cl)c3)Oc3cc2cc(c3O[C@@H]2O[C@H](CO)[C@@H](O)[C@H](O)[C@H]2O[C@H]2C[C@](C)(N)[C@H](O)[C@H](C)O2)Oc2ccc(cc2Cl)[C@H]1O	no
NC[C@H]1O[C@H](O[C@H]2[C@H](O)[C@@H](O[C@H]3O[C@H](CO)[C@@H](O)[C@H](N)[C@H]3O)[C@H](N)C[C@@H]2N)[C@H](N)C[C@@H]1O	yes
CO/N=C(\C(=O)N[C@@H]1C(=O)N2C(C(=O)O)=C(CSc3nc(=O)c(=O)[nH]n3C)CS[C@H]12)c1csc(N)n1	yes
C/C(=C\C(=O)OCCCCCCCCC(=O)O)C[C@@H]1OC[C@H](C[C@@H]2O[C@H]2[C@@H](C)[C@H](C)O)[C@@H](O)[C@H]1O	no

* * *

- System: Francisella tularensis
- Type: cell-based
- Experimental Setup: expected efficacy; Gram: neg

Smiles Str	efficacy against Francisella tularensis
O=C(O)c1cn(C2CC2)c2cc(N3CCNCC3)c(F)cc2c1=O	yes
CO/N=C(\C(=O)N[C@@H]1C(=O)N2C(C(=O)O)=C(CSc3nc(=O)c(=O)[nH]n3C)CS[C@H]12)c1csc(N)n1	no
C/C(=C\C(=O)OCCCCCCCCC(=O)O)C[C@@H]1OC[C@H](C[C@@H]2O[C@H]2[C@@H](C)[C@H](C)O)[C@@H](O)[C@H]1O	no
CC[C@H]1OC(=O)[C@H](C)[C@@H](O[C@H]2C[C@@](C)(OC)[C@@H](O)[C@H](C)O2)[C@H](C)[C@@H](O[C@@H]2O[C@H](C)C[C@H](N(C)C)[C@H]2O)[C@](C)(O)C[C@@H](C)CN(C)[C@H](C)[C@@H](O)[C@]1(C)O	no

* * *

- Tested on: Staphylococcus aureus (MSSA)
- Test Name: Expected efficacy of antibiotic agents
- Type: cell-based
- Experimental Setup: Gram: pos
Measured Attribute: efficacy against Staphylococcus aureus (MSSA)

Smiles Str	Val
NC[C@H]1O[C@H](O[C@H]2[C@H](O)[C@@H](O[C@H]3O[C@H](CO)[C@@H](O)[C@H](N)[C@H]3O)[C@H](N)C[C@@H]2N)[C@H](N)C[C@@H]1O	no
C/C(=C\C(=O)OCCCCCCCCC(=O)O)C[C@@H]1OC[C@H](C[C@@H]2O[C@H]2[C@@H](C)[C@H](C)O)[C@@H](O)[C@H]1O	yes
CN[C@H](CC(C)C)C(=O)N[C@H]1C(=O)N[C@@H](CC(N)=O)C(=O)N[C@H]2C(=O)N[C@H]3C(=O)N[C@H](C(=O)N[C@H](C(=O)O)c4cc(O)cc(O)c4-c4cc3ccc4O)[C@H](O)c3ccc(c(Cl)c3)Oc3cc2cc(c3O[C@@H]2O[C@H](CO)[C@@H](O)[C@H](O)[C@H]2O[C@H]2C[C@](C)(N)[C@H](O)[C@H](C)O2)Oc2ccc(cc2Cl)[C@H]1O	yes
CO/N=C(\C(=O)N[C@@H]1C(=O)N2C(C(=O)O)=C(CSc3nc(=O)c(=O)[nH]n3C)CS[C@H]12)c1csc(N)n1	yes
CC[C@H]1OC(=O)[C@H](C)[C@@H](O[C@H]2C[C@@](C)(OC)[C@@H](O)[C@H](C)O2)[C@H](C)[C@@H](O[C@@H]2O[C@H](C)C[C@H](N(C)C)[C@H]2O)[C@](C)(O)C[C@@H](C)CN(C)[C@H](C)[C@@H](O)[C@]1(C)O	yes

* * *

- Tested on: Yersinia pestis
- Type: cell-based
- Experimental Setup: expected efficacy; Gram: neg
Measured Attribute: efficacy against Yersinia pestis

Compound	Val
NC[C@H]1O[C@H](O[C@H]2[C@H](O)[C@@H](O[C@H]3O[C@H](CO)[C@@H](O)[C@H](N)[C@H]3O)[C@H](N)C[C@@H]2N)[C@H](N)C[C@@H]1O [Tobramycin]	yes
CO/N=C(\C(=O)N[C@@H]1C(=O)N2C(C(=O)O)=C(CSc3nc(=O)c(=O)[nH]n3C)CS[C@H]12)c1csc(N)n1 [Ceftriaxone]	no
C/C(=C\C(=O)OCCCCCCCCC(=O)O)C[C@@H]1OC[C@H](C[C@@H]2O[C@H]2[C@@H](C)[C@H](C)O)[C@@H](O)[C@H]1O [Bactroban, Mupirocin]	no
O=C(O)c1cn(C2CC2)c2cc(N3CCNCC3)c(F)cc2c1=O [Ciprofloxacin]	yes

* * *

- System: Pseudomonas aeruginosa
- Test Name: Expected efficacy of antibiotic agents
- Assay type: cell-based
- Experimental Setup: Gram: neg

Molecule	efficacy against Pseudomonas aeruginosa
CO/N=C(\C(=O)N[C@@H]1C(=O)N2C(C(=O)O)=C(CSc3nc(=O)c(=O)[nH]n3C)CS[C@H]12)c1csc(N)n1 [Ceftriaxone]	no
C/C(=C\C(=O)OCCCCCCCCC(=O)O)C[C@@H]1OC[C@H](C[C@@H]2O[C@H]2[C@@H](C)[C@H](C)O)[C@@H](O)[C@H]1O [Bactroban, Mupirocin]	no
NC[C@H]1O[C@H](O[C@H]2[C@H](O)[C@@H](O[C@H]3O[C@H](CO)[C@@H](O)[C@H](N)[C@H]3O)[C@H](N)C[C@@H]2N)[C@H](N)C[C@@H]1O [Tobramycin]	yes
CN[C@H](CC(C)C)C(=O)N[C@H]1C(=O)N[C@@H](CC(N)=O)C(=O)N[C@H]2C(=O)N[C@H]3C(=O)N[C@H](C(=O)N[C@H](C(=O)O)c4cc(O)cc(O)c4-c4cc3ccc4O)[C@H](O)c3ccc(c(Cl)c3)Oc3cc2cc(c3O[C@@H]2O[C@H](CO)[C@@H](O)[C@H](O)[C@H]2O[C@H]2C[C@](C)(N)[C@H](O)[C@H](C)O2)Oc2ccc(cc2Cl)[C@H]1O [Vancomycin]	no
O=C(O)c1cn(C2CC2)c2cc(N3CCNCC3)c(F)cc2c1=O [Ciprofloxacin]	yes
CC[C@H]1OC(=O)[C@H](C)[C@@H](O[C@H]2C[C@@](C)(OC)[C@@H](O)[C@H](C)O2)[C@H](C)[C@@H](O[C@@H]2O[C@H](C)C[C@H](N(C)C)[C@H]2O)[C@](C)(O)C[C@@H](C)CN(C)[C@H](C)[C@@H](O)[C@]1(C)O [Azithromycin]	no

* * *

- Tested on: Corynebacterium jeikeium
- Test Name: Expected efficacy of antibiotic agents
- Assay type: cell-based
- Experimental Setup: Gram: pos
Measured Attribute: efficacy against Corynebacterium jeikeium

Smiles Str	Val
O=C(O)c1cn(C2CC2)c2cc(N3CCNCC3)c(F)cc2c1=O	no
NC[C@H]1O[C@H](O[C@H]2[C@H](O)[C@@H](O[C@H]3O[C@H](CO)[C@@H](O)[C@H](N)[C@H]3O)[C@H](N)C[C@@H]2N)[C@H](N)C[C@@H]1O	no
CO/N=C(\C(=O)N[C@@H]1C(=O)N2C(C(=O)O)=C(CSc3nc(=O)c(=O)[nH]n3C)CS[C@H]12)c1csc(N)n1	no
CC[C@H]1OC(=O)[C@H](C)[C@@H](O[C@H]2C[C@@](C)(OC)[C@@H](O)[C@H](C)O2)[C@H](C)[C@@H](O[C@@H]2O[C@H](C)C[C@H](N(C)C)[C@H]2O)[C@](C)(O)C[C@@H](C)CN(C)[C@H](C)[C@@H](O)[C@]1(C)O	no
C/C(=C\C(=O)OCCCCCCCCC(=O)O)C[C@@H]1OC[C@H](C[C@@H]2O[C@H]2[C@@H](C)[C@H](C)O)[C@@H](O)[C@H]1O	no
CN[C@H](CC(C)C)C(=O)N[C@H]1C(=O)N[C@@H](CC(N)=O)C(=O)N[C@H]2C(=O)N[C@H]3C(=O)N[C@H](C(=O)N[C@H](C(=O)O)c4cc(O)cc(O)c4-c4cc3ccc4O)[C@H](O)c3ccc(c(Cl)c3)Oc3cc2cc(c3O[C@@H]2O[C@H](CO)[C@@H](O)[C@H](O)[C@H]2O[C@H]2C[C@](C)(N)[C@H](O)[C@H](C)O2)Oc2ccc(cc2Cl)[C@H]1O	yes
